// kon lookup, one value per entry
Target: T1, human PD-1 (construct not stated) (human, UniProt Q15116 25-167, limits assumed)
T1 construct: also called PD-1 analyte
T1 sequence (Q15116 25-167 limits assumed): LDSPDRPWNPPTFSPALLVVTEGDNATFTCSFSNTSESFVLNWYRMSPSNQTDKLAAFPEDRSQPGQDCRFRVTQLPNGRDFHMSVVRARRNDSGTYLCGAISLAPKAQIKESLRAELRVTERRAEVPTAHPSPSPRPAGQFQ
Assay: Biacore, antibody captured, PD-1 analyte

{"binder": "6E1 murine anti-PD-1 antibody (antibody, V domains shown, Purified hybridoma antibody; also called 6E1-mIgG1) VH: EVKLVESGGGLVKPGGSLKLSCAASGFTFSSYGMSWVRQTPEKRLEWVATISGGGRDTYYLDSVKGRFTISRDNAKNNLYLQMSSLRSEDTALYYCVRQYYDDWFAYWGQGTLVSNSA VL: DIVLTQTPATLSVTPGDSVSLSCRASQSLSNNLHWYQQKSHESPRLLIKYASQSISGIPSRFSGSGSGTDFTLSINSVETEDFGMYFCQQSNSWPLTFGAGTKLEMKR", "units.symbol": "M⁻¹ s⁻¹", "kon": "1.11e+06"}
{"binder": "4C10 murine anti-PD-1 antibody (antibody, V domains shown, Purified hybridoma antibody; also called 4C10-mIgG1) VH: QVQLKQSGPGLVQPSQNLSVTCTVSGFSLTTYGVHWVRQSPGKGLEWLGVIWSGGSTDYNAAFISRLTISKDNARSQVFFKMNSLQVNDTAMYYCAREKSVYGNYVGAMDYWGQGTSVTVSS VL: SIVMTQTPKFLLVSAGDRVTITCKASQSVSDDVAWYQQKPGQSPKLLIYYAFNRYTGVPDRFTGSGYGTDFTFTISTVQSEDLAVYFCQQDYRSPWTFGGGTKLEIKR", "units.symbol": "M⁻¹ s⁻¹", "kon": 791000}
{"binder": "13F1 murine anti-PD-1 antibody (antibody, V domains shown, Purified hybridoma antibody; also called 13F1-mIgG1) VH: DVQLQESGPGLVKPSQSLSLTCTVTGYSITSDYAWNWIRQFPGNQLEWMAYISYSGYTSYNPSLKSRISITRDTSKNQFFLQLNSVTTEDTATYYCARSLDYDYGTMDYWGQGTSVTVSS VL: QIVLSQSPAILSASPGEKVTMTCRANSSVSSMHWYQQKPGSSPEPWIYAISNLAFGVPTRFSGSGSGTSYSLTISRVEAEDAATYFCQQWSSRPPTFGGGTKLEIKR", "units.symbol": "M⁻¹ s⁻¹", "kon": "1.41e+06"}
